- Experimental Details: NCI Yeast Anticancer Drug Screen. Data for the rad50 strain (AID 155);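 further: 0% = growth of vehicle-only cultures of the same strain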
- Condition Context: S. cerevisiae rad50 strain growth inhibition; at 50.0 µM (retest, dose inferred, filed as 5.0)
The panel holds about 79,000 compounds, 15% with a hit somewhere; the sample as a whole holds those more often. Active and inactive are the calls of the source. No stated cut-off is given here; in the data, active means growth inhibition above about 70%; inactive means the rest.
Outcomes: t for active, f for inactive

[[record]]
compound = "O=C(O)CCCCC1CCCCC1.[Cu+2]"
assigned_label = "t"

[[record]]
compound = "C/C(=N\\NC(=S)N1CCN(c2ccccn2)CC1)c1ncccn1"
assigned_label = "f"

[[record]]
compound = "O=Nc1ccccc1N=O"
assigned_label = "t"

[[record]]
compound = "CCCCCCCCCCCCCCCCOP(=O)([O-])OCC[N+](C)(C)C"
assigned_label = "t"

[[record]]
compound = "C/C(=N/O)c1cc([N+](=O)[O-])c(O)cc1O"
assigned_label = "t"

[[record]]
compound = "O=C(CSC1=NNC2(C(=O)N1)c1ccccc1-c1ccccc12)NC(=S)Nc1ccccc1"
assigned_label = "t"

[[record]]
compound = "CN(C)CC1Cc2ccsc2C1=O (stereo not drawn)"
assigned_label = "t"

[[record]]
compound = "CC(C)CCCC(C)[C@H]1CCC(C2C[C@@H](O)[C@@H]3CC(O)[C@@H](O)C[C@]3(CO)C2=O)[C@]1(C)CCO (stereo partly drawn)"
assigned_label = "t"

[[record]]
compound = "CCCCN(CCCC)Cc1cc(Nc2c3ccc(Cl)cc3nc3ccc(OC)cc23)ccc1O"
assigned_label = "t"

[[record]]
compound = "CCN(CC)CCOC(=O)CCN1CC2CCC(CC2)C1"
assigned_label = "f"

[[record]]
compound = "NC(CCC(=O)NC(CS(=O)(=O)O)C(=O)O)C(=O)O (stereo not drawn)"
assigned_label = "f"

[[record]]
compound = "CCN(CC)CCNCc1ccccc1"
assigned_label = "f"

[[record]]
compound = "Cc1cccc(C[P+](c2ccccc2)(c2ccccc2)c2ccccc2)c1"
assigned_label = "t"

[[record]]
compound = "CSc1ncccc1C(=O)[O][Sn]([c]1ccccc1)([c]1ccccc1)[c]1ccccc1"
assigned_label = "t"

[[record]]
compound = "CNC(=S)N/N=C/c1nccc(-c2ccccc2)c1C"
assigned_label = "t"

[[record]]
compound = "Cc1cc(N)c2c(c1O)C(=O)c1ccccc1C2=O"
assigned_label = "f"

[[record]]
compound = "COc1cccc(C2c3cc4c(cc3OC(Nc3ccccc3)C2C)OCO4)c1O (stereo not drawn)"
assigned_label = "t"

[[record]]
compound = "CN(C)c1ccc(/C=C(\\C#N)c2c(F)cccc2F)cc1"
assigned_label = "f"


---

Listed molecules paired with reported growth inhibition
- Experimental Details: NCI Yeast Anticancer Drug Screen. Data for the mec2-1 strain (AID 157)
- Condition Context: S. cerevisiae mec2-1 strain, at 50.0 µM (retest, dose inferred, filed as 5.0), hits give high values
- Procedure: Growth inhibition of yeast strains with defined genetic alterations is measured as a screen for potential anti-cancer activity. Selected strains with alterations in DNA damage repair or cell cycle control were exposed to compounds and growth inhibition was measured relative to vehicle treated controls. The strain used in this assay is mec2-1
About 79,000 compounds went through this panel and 15% of them were active in at least one assay; those are over-represented in the sample as a whole.
Recorded Endpoint: growth inhibition (%)

[[record]]
molecule = "CNc1ccc(N)cc1"
recorded_endpoint = "growth inhibition"
recorded_measurement = -5

[[record]]
molecule = "O=C(O)/C(Cl)=C(\\Cl)C(=O)Nc1cccc(C(F)(F)F)c1"
recorded_endpoint = "growth inhibition"
recorded_measurement = 100

[[record]]
molecule = "O=C1NC(=O)/C(=C/C=C/c2ccccc2)S1"
recorded_endpoint = "growth inhibition"
recorded_measurement = 73

[[record]]
molecule = "C=C(CCC(C)C1CCC2(C)C3=C(CC(O)C12C)C1(C)CCC(O)C(C)(C)C1CC3)C(C)C(=O)O (stereo not drawn)"
recorded_endpoint = "growth inhibition"
recorded_measurement = 91

[[record]]
molecule = "C/C=C1\\SC(=S)NC1=O"
recorded_endpoint = "growth inhibition"
recorded_measurement = 99

[[record]]
molecule = "CN(C)c1nc(N(C)C)oc(=[N+](C)C)n1"
recorded_endpoint = "growth inhibition"
recorded_measurement = -8

[[record]]
molecule = "c1ccc2c(c1)C[n+]1ccc3ccccc3c1-c1c3ccccc3cc[n+]1C2"
recorded_endpoint = "growth inhibition"
recorded_measurement = 20

[[record]]
molecule = "O=c1c(S(=O)(=O)Oc2ccccc2)coc2cc(F)ccc12"
recorded_endpoint = "growth inhibition"
recorded_measurement = 100

[[record]]
molecule = "O=C(Nc1ccccc1F)C(Br)C(Br)c1ccccc1 (stereo not drawn)"
recorded_endpoint = "growth inhibition"
recorded_measurement = 90

[[record]]
molecule = "Cc1[nH]c2ccccc2c1C(c1ccccc1)c1c(C)[nH]c2ccccc12"
recorded_endpoint = "growth inhibition"
recorded_measurement = 98

[[record]]
molecule = "Cn1c2c(c3ccccc31)CCN1C[C@@H]3CCCC[C@H]3C[C@@H]21"
recorded_endpoint = "growth inhibition"
recorded_measurement = 2

[[record]]
molecule = "CCCCSc1n[nH]c(=O)nc1SC"
recorded_endpoint = "growth inhibition"
recorded_measurement = 79

[[record]]
molecule = "O=C(O)Cc1nc2ccccc2[nH]1"
recorded_endpoint = "growth inhibition"
recorded_measurement = 70

[[record]]
molecule = "CCCN(CCC)C(=S)N/N=C(/C)c1ccccc1O"
recorded_endpoint = "growth inhibition"
recorded_measurement = 98

[[record]]
molecule = "NCCCSc1ccc(Br)cc1"
recorded_endpoint = "growth inhibition"
recorded_measurement = -5

[[record]]
molecule = "O=Nc1ccccc1N=O"
recorded_endpoint = "growth inhibition"
recorded_measurement = 99

[[record]]
molecule = "O=C(Nc1ccccc1)OCCc1ccc(Br)cc1"
recorded_endpoint = "growth inhibition"
recorded_measurement = -31

[[record]]
molecule = "COc1ccc(C(=O)Nc2ccc(O)c(=O)cc2)cc1"
recorded_endpoint = "growth inhibition"
recorded_measurement = 59

[[record]]
molecule = "ClC1=C(Cl)C2c3ccccc3C1c1ccccc12"
recorded_endpoint = "growth inhibition"
recorded_measurement = 97

[[record]]
molecule = "COC(=O)[C@@H]1c2cc3c(c(O)c2[C@@H](OC2OC(C)C(OC)C(C)(OC)C2OC)C[C@]1(C)O)C(=O)c1c(O)cc2c(c1C3=O)O[C@H]1O[C@]2(C)[C@H](O)[C@@H](N(C)C)[C@@H]1O (stereo partly drawn)"
recorded_endpoint = "growth inhibition"
recorded_measurement = 99

[[record]]
molecule = "Cc1ccc(S(=O)(=O)Nc2ccc3c(c2)Cc2cc([N+](=O)[O-])ccc2-3)cc1"
recorded_endpoint = "growth inhibition"
recorded_measurement = 58

[[record]]
molecule = "O=C(O)c1c(Cl)c(Cl)c(Cl)c(Cl)c1-c1c2cc(I)c(=O)c(I)c-2oc2c(I)c(O)c(I)cc12"
recorded_endpoint = "growth inhibition"
recorded_measurement = 99

[[record]]
molecule = "O=C(Nc1ccccc1-c1nn(C(=S)Nc2ccccc2)c(=S)n(C(=S)Nc2ccccc2)c1=O)C(F)(F)F"
recorded_endpoint = "growth inhibition"
recorded_measurement = 87

